- TEST_TARGET: JAK1 (aa 850-1154, catalytic domain, GST-tag) (Homo sapiens)
- Construct: JAK1 (aa 850-1154) and TYK2 (aa 871-1187) are expressed with an N-terminally fused GST-tag; GST (N); purchased Carna Biosciences, Inc; host or cells: baculovirus expression system
- Sequence (P23458 850-1154): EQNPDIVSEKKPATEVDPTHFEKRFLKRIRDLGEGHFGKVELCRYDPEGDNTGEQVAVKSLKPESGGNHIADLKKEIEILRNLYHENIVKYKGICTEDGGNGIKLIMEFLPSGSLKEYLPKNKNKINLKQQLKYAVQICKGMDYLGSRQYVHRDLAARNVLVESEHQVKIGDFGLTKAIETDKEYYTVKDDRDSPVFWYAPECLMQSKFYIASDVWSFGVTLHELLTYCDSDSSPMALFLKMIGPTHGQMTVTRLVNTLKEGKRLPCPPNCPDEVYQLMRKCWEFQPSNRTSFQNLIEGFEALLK
- PROCEDURE_DETAILS: JAK kinase assay (HTRF, phosphorylation of TK substrate-biotin), JAK1
- Format: biochemical
- CONDITION_INFO: HTRF assay, ATP at Km (7 μM); read-out: JAK1 kinase inhibitory activity (EC50 indicator)
Provide the recorded EC50 for the entries that follow.

Request: Quote EC50 reported for N#Cc1ccc(C(=O)N2CCN(c3ncnc4[nH]cc(Cl)c34)CC23CC3)cc1 please.
Response: > 500 nM

Request: Quote EC50 reported for COc1cnc2[nH]ccc2c1N1CCN(C(=O)Cc2cccc(C#N)c2)C2(CC2)C1 please.
Response: 100 to 500 nM

Request: Quote EC50 reported for Cc1c[nH]c2ncnc(N3CCN(C(=O)CCC#N)C4(CC4)C3)c12 please.
Response: > 500 nM

Request: Quote EC50 reported for O=C(c1cnccn1)N1CCN(c2ccnc3[nH]ccc23)CC12CC2 please.
Response: 100 to 500 nM

Request: Quote EC50 reported for Cc1cc(C(=O)N2CCN(c3ncnc4[nH]ccc34)CC23CC3)ccc1S(C)(=O)=O please.
Response: < 100 nM

Request: Quote EC50 reported for O=C(Cc1ccc(C(F)(F)F)cc1)N1CCN(c2ncnc3[nH]cc(Cl)c23)CC12CC2 please.
Response: 100 to 500 nM

Request: Quote EC50 reported for Cc1cc(C(=O)N2[C@@H]3CC[C@H]2CN(c2ncnc4[nH]ccc24)C3)ccc1S(N)(=O)=O please.
Response: < 100 nM

Request: Quote EC50 reported for Cc1ccc(C(=O)N2C[C@@H]3C[C@H]2CN3c2ncnc3[nH]ccc23)s1 please.
Response: > 500 nM

Request: Quote EC50 reported for N#Cc1ccc(C(=O)N2CCN(c3ccnc4[nH]ccc34)CC23CC3)cc1 please.
Response: < 100 nM

Request: Quote EC50 reported for COc1cc(C(=O)N2CCN(c3ncnc4[nH]ccc34)CC23CC3)ccc1S(N)(=O)=O please.
Response: < 100 nM

Request: Quote EC50 reported for Cc1c[nH]c2ncnc(N3CCN(C(=O)Cc4cccc(C#N)c4)C4(CC4)C3)c12 please.
Response: > 500 nM

Request: Quote EC50 reported for COC(=O)c1cc2c(N3CCN(C(=O)Cc4ccc(C(F)(F)F)cc4)C4(CC4)C3)ncnc2[nH]1 please.
Response: > 500 nM

Request: Quote EC50 reported for N#CCc1cccc(CC(=O)N2[C@@H]3CC[C@@H]2CN(c2ncnc4[nH]ccc24)C3)c1 please.
Response: 100 to 500 nM

Request: Quote EC50 reported for N#CCOc1ccc(C(=O)N2[C@@H]3CC[C@@H]2CN(c2ncnc4[nH]ccc24)C3)cc1 please.
Response: < 100 nM

Request: Quote EC50 reported for NS(=O)(=O)c1ccc(C(=O)N2CCN(c3ncnc4[nH]ccc34)CC23CC3)s1 please.
Response: < 100 nM

Request: Quote EC50 reported for O=C(c1cccs1)N1CCN(c2ncnc3[nH]ccc23)CC12CC2 please.
Response: < 100 nM

Request: Quote EC50 reported for COc1csc(C(=O)N2CCN(c3ncnc4[nH]ccc34)CC23CC3)c1 please.
Response: < 100 nM

Request: Quote EC50 reported for Cc1c[nH]c2ncnc(N3CCN(C(=O)Cc4ccc(C(F)(F)F)cc4)C4(CC4)C3)c12 please.
Response: 100 to 500 nM

Request: Quote EC50 reported for N#Cc1cccc(C(=O)N2CCN(c3ncnc4[nH]cc(Cl)c34)CC23CC3)c1 please.
Response: > 500 nM

Request: Quote EC50 reported for N#Cc1ccc(CC(=O)N2CCN(c3ncnc4[nH]cc(Cl)c34)CC23CC3)cc1 please.
Response: < 100 nM

Request: Quote EC50 reported for NS(=O)(=O)c1ccc(NC(=O)C(=O)N2CCN(c3ncnc4[nH]ccc34)CC23CC3)cc1 please.
Response: < 100 nM

Request: Quote EC50 reported for NS(=O)(=O)c1c[nH]c(C(=O)N2CCN(c3ncnc4[nH]ccc34)CC23CC3)c1 please.
Response: < 100 nM

Request: Quote EC50 reported for Cc1ccsc1C(=O)N1[C@@H]2CC[C@@H]1CN(c1ncnc3[nH]ccc13)C2 please.
Response: 100 to 500 nM

Request: Quote EC50 reported for O=C(c1ccc(S(=O)(=O)C2CCCC2)cc1)N1CCN(c2ncnc3[nH]ccc23)CC12CC2 please.
Response: < 100 nM

Request: Quote EC50 reported for CNS(=O)(=O)c1csc(C(=O)N2CCN(c3ncnc4[nH]ccc34)CC23CC3)c1 please.
Response: < 100 nM

Request: Quote EC50 reported for O=C(c1ccccc1)N1C[C@@H]2C[C@H]1CN2c1ncnc2[nH]ccc12 (racemic) please.
Response: > 500 nM

Request: Quote EC50 reported for Cc1c[nH]c2ncnc(N3CCN(C(=O)C4(C#N)CC4)C4(CC4)C3)c12 please.
Response: > 500 nM

Request: Quote EC50 reported for N#Cc1ccc(C(=O)C(=O)N2CCN(c3ncnc4[nH]ccc34)CC23CC3)cc1 please.
Response: < 100 nM

Request: Quote EC50 reported for COc1cccc(C(=O)N2CCN(c3ncnc4[nH]ccc34)CC23CC3)c1OC please.
Response: 100 to 500 nM

Request: Quote EC50 reported for O=C(c1cc2ccc(F)cc2[nH]1)N1CCN(c2ncnc3[nH]ccc23)CC12CC2 please.
Response: < 100 nM

Request: Quote EC50 reported for N#Cc1ccc2c(C(=O)N3CCN(c4ncnc5[nH]ccc45)CC34CC4)n[nH]c2c1 please.
Response: < 100 nM

Request: Quote EC50 reported for NS(=O)(=O)c1csc(C(=O)N2CCN(c3ncnc4[nH]ccc34)CC23CC3)c1 please.
Response: < 100 nM
